# System under test: Wee1-like protein kinase (Homo sapiens) (UniProt P30291)
# Test method notes: compounds stabilizing Wee1-luciferase fusion – cell-based, HeLa, Wee1K328M-luciferase, luminescence, primary screen (AID 1321);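 also: cells exposed to compound for 20 h before luminescence read; 0% = DMSO alone and 100% = MG132 at 30 µM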
# Settings: HeLa Luc-Wee1K328M stability, at 5 µM
The whole screen tested about 220,000 compounds, of which about 2,600 (1.2%) were called active.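 The calls were made as follows: active = activation above the mean of all tested compounds plus 3 SD, set per screening run (cut at about 8.8% in these data); inactive = the rest.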 The sample as a whole holds a higher share of actives than the screen did.
One label from this list, please: true (1) for active, false (0) for inactive

# example entries with known answers
CN(C)CC1CCCCC1=O (centres undefined) ... false (0)
O=C(N/N=C/c1c(O)n(Cc2ccccc2)c(=O)[nH]c1=O)c1ccccc1 ... true (1)

// outcome(item) with item = NC(=O)Nc1cccc(C(F)(F)F)c1 false (0)

Could you do the same for O=c1[nH]c(=O)n(Cc2ccccc2)c(O)c1/C=N/Nc1c(F)c(F)c(F)c(F)c1F , please? false (0)

The values you see were collected from PubChem BioAssay AID1321.
